# measured_on: UniProt P00734
pKi: −log10 of the molar value.
Threshold rule: pKi greater than or equal to 8 is Condition met; below that, Condition not met.

* Cc1ccc(NS(=O)(=O)c2ccc3c(c2)CCO3)c(=O)n1CC(=O)NCc1ccc2[nH]nc(N)c2c1 | Condition not met
* Cc1ccc(NS(=O)(=O)c2ccc3c(c2)CCO3)c(=O)n1CC(=O)NCc1ccc2[nH]ncc2c1 | Condition met
* Cc1cnc(NCCc2ccc3c(c2)CCO3)c(=O)n1CC(=O)NCc1ccc2[nH]ncc2c1 | Condition met
* CCc1cnc(NCCc2ccccc2)c(=O)n1CC(=O)NCc1ccc2[nH]ccc2c1 | Condition not met
* Cc1cnc(NCC(F)(F)c2ccccc2)c(=O)n1CC(=O)NCc1ccc2c(N)noc2c1 | Condition met
* Cc1cnc(NCC2(c3ccccn3)CC2)c(=O)n1CC(=O)NCc1ccc2c(N)noc2c1 | Condition not met
* Cc1cnc(NCCc2ccccc2)c(=O)n1CC(=O)NCc1ccc2[nH]ncc2c1 | Condition not met
* Cc1nc2cc(CNC(=O)Cn3c(C)cnc(NCCc4ccccc4)c3=O)ccc2[nH]1 | Condition not met

* * *

# measured_on: Prothrombin (Homo sapiens, UniProt P00734)
pKi: −log10 of the molar value.
value_kind: pKi

- Cc1cnc(NCC2(c3ccc(F)cc3)CC2)c(=O)n1CC(=O)NCc1ccc2c(N)noc2c1: 7.80
- Cc1cnc(NCC2(c3ccc(F)cc3)CC2)c(=O)n1CC(=O)NCc1ccc2[nH]nc(N)c2c1: 7.82
- Cc1ccc(NS(=O)(=O)Cc2ccc(Cl)cc2)c(=O)n1CC(=O)NCc1ccc2[nH]cnc2c1: 8.19
